test: in vivo; conditions: CD-1, mouse, iv, 1 mg/kg
Description: Half life in CD-1 mouse at 1 mg/kg, iv
readout.type: half-life (h)
Give bare numbers, in h.

Task: Reported half-life for "C[C@@H]1COCCN1c1cc(N=[S@@](C)(=O)C2CC2)nc(-c2ccnc(N)c2)n1" : what is it?
Output: 2.8

====

test: in vivo; conditions: CD-1, mouse, po, 30 mg/kg
readout.type: Cmax
Hey, just the number and the unit after it is fine.

Task: Would you mind telling me what Cmax value was observed for "C[C@@H]1COCCN1c1cc(N=[S@@](C)(=O)C2CC2)nc(-c2ccnc(N)c2)n1" ?
Output: 16.1 µM

====

assay: in vitro; settings: human, Caco-2
Description: Apparent permeability of the compound across apical to basolateral side in human Caco-2 cells at 10 uM
readout.type: Papp A→B at 10 µM (×10⁻⁶ cm/s)
One number for each entry, in ×10⁻⁶ cm/s.

Task: What does the record list as Papp A→B at 10 µM for "C[C@@H]1COCCN1c1cc(N=[S@@](C)(=O)C2CC2)nc(-c2ccnc(N)c2)n1" ?
Output: 17
